# tgt: purified recombinant human alpha synuclein fibrils (human, UniProt P37840 1-140)
# assay notes: SPR, Biacore T200, as in Example 3; full-length IgG4P injected
endpoint name: koff (s⁻¹)
# number only, unit s⁻¹ dropped from output

Input line: Identify measured koff corresponding to VR6470 gL3; gH36-S56N-N102H (antibody, human IgG4 S228P, kappa, V domains shown, Full-length humanized human IgG4P) VH: EVQLLESGGGLVQPGGSLRLSCAVSGIDLSSHDMYWVRQAPGKGLEYIGAIYASGNTYYASWAKGRFTISRDSSKNTLYLQMNSLRAEDTAVYYCARIHYGHSGGLWGQGTLVTVSS VL: DIQMTQSPSSLSASVGDRVTITCQASQSVYKNNYLAWFQQKPGKAPKQLIYGASTLASGVPSRFSGSGSGTQFTLTISSLQPEDFATYYCAGYKGGRNDGFAFGGGTKVEIKR
Output line: 7.44e-05

Input line: Please give measured koff of the following entry: 6470gL3gH23 IgG4P (antibody, V domains shown, Full-length humanized human IgG4P; also called VR6470 gL3) VH: EVQLLESGGGLVQPGGSLRLSCAVSGIDLSSHDMYWVRQAPGKGLEYIGAIYASGSTYYASWAKGRFTISRDNSKNTVYLQMNSLRAEDTAVYYCARIHYGNSGGLWGQGTLVTVSS VL: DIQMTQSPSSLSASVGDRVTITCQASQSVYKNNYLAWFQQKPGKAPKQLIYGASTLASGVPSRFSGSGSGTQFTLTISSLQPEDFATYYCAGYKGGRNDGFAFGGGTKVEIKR
Output line: 0.000142

Input line: Please give the documented koff of VR6470 gL3; gH23-S56N-N102H (antibody, human IgG4 S228P, kappa, V domains shown, Full-length humanized human IgG4P) VH: EVQLLESGGGLVQPGGSLRLSCAVSGIDLSSHDMYWVRQAPGKGLEYIGAIYASGNTYYASWAKGRFTISRDNSKNTVYLQMNSLRAEDTAVYYCARIHYGHSGGLWGQGTLVTVSS VL: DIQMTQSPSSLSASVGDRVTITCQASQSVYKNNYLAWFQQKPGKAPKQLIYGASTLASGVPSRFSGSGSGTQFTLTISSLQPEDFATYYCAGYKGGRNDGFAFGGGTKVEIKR
Output line: 7.08e-05
